Target: Calmodulin-1 (Homo sapiens) (UniProt P0DP23)
Assay: CALM1 binders on microarrays, EGTA buffer, profiling panel, biochemical, small-molecule microarray, Cy5-labelled CALM1 (AID 1111);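 also: labelled calmodulin applied in Tris saline Tween buffer holding calcium plus EGTA and DTT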
Settings: Cy5-CALM1 binding fluorescence, higher = more signal

[
  {
    "COMPOUND": "CCc1cc2c(nc1CC)CCN(CCC(C)=NOC(C)CN1CCCc3nc(C)c(C)cc31)C2 (stereo unspecified)",
    "composite z-score": 0.276
  },
  {
    "COMPOUND": "CN1C(=O)C2C=CC(C(O)c3ccc(I)cc3)N(NC(=O)OC(C)(C)C)C2C1=O (stereo unspecified)",
    "composite z-score": 0.526
  },
  {
    "COMPOUND": "O=C1C[C@@H](O)[C@@H](O)[C@@H]2[C@@H]3C(=O)N(C4CCCCC4)C(=O)[C@@H]3CC[C@H]12",
    "composite z-score": -0.0292
  },
  {
    "COMPOUND": "CO[C@H]1COC(=O)[C@H](C)NC(=O)[C@@H](C)COC(=O)CC=C[C@@H]1C",
    "composite z-score": -0.239
  },
  {
    "COMPOUND": "COC(=O)[C@H](C)NC(=O)CCC1CC(OC(=O)NCc2cccc3ccccc23)CC2(CCCC(COC(=O)NCCc3ccc(Cl)cc3)O2)O1 (stereo partly specified)",
    "composite z-score": 0.866
  },
  {
    "COMPOUND": "CO[C@H]1COC(=O)[C@H](C)COC(=O)CC=C[C@@H](C)[C@H](OC)COC(=O)CC=C[C@@H]1C",
    "composite z-score": -0.556
  },
  {
    "COMPOUND": "COCC1=C2[C@@H](CCc3ccccc3)OB(O)C[C@@H]2n2c(=O)n(-c3ccccc3)c(=O)n2C1",
    "composite z-score": -0.455
  },
  {
    "COMPOUND": "CC(CCC(=O)OC[C@H]1O[C@H](C#Cc2ccccc2)C=C[C@@H]1Oc1ccc(C)cc1)=NO[C@@H](C)c1cn([C@H](CO)Cc2ccccc2)nn1",
    "composite z-score": -0.329
  },
  {
    "COMPOUND": "O=C1[C@H]2[C@H]3[C@H](O)[C@H](O)CC(=NOC[C@@H](O)COCc4ccco4)[C@H]3CC[C@H]2C(=O)N1Cc1ccc2c(c1)OCO2",
    "composite z-score": -1.37
  },
  {
    "COMPOUND": "CC(CCN1CCCCc2nc(C)c(C)cc21)=NOC(C)CN1CCCc2nc(C)c(C)cc21 (stereo unspecified)",
    "composite z-score": 1.09
  },
  {
    "COMPOUND": "COc1ccc(OC[C@H]2Cc3c(-c4ccccc4)nc4c(c3CO2)CN(CCOc2ccccc2)CC4)cc1",
    "composite z-score": 0.59
  },
  {
    "COMPOUND": "COc1ccc(COC(=O)NN=C2C[C@@H](O)[C@@H](O)[C@@H]3[C@@H]4C(=O)N(Cc5ccc6c(c5)OCO6)C(=O)[C@@H]4CC[C@@H]23)cc1",
    "composite z-score": -0.389
  },
  {
    "COMPOUND": "C=C(COC)/C(=C/C[C@H](OC(=O)c1ccncc1)c1ccc(CO)o1)c1cc(C(=O)OC)ccc1OC",
    "composite z-score": 0.0845
  },
  {
    "COMPOUND": "C/C=C\\[C@@H](NCc1ccccc1Br)[C@@H](O)Cc1ccccc1",
    "composite z-score": -0.64
  },
  {
    "COMPOUND": "C[C@@H](c1ccccc1)N1C(=O)[C@H]2[C@H]3[C@H](O)[C@H](O)CC(=NOC[C@@H](O)COCc4ccco4)[C@@H]3CC[C@H]2C1=O",
    "composite z-score": -0.495
  },
  {
    "COMPOUND": "CCCNC(=O)OC[C@H]1O[C@H](CCON=C[C@@H](OC)[C@H](C)C=CCC(=O)OC)C=C[C@@H]1Oc1ccc(OC)cc1",
    "composite z-score": -1.81
  }
]

---

Assay: anti-His antibody binders, primary screen, artefact control for SMM control protein annotation, biochemical, small-molecule microarray, 635 nm fluorescence (AID 1128);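 also: score merges feature fluorescence with signal-to-noise for each printed compound spot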
Conditions: anti-His Alexa647 antibody binding, higher = more signal
// map composite z-score to label using lower level: < 0.05; middle level: ≥ 0.05 and < 0.9; upper level: ≥ 0.9

[
  {
    "COMPOUND": "CO[C@@H]1COC(=O)CCC[C@@H](C)[C@H](OC)COC(=O)[C@H](Cc2ccccc2)NC(=O)CC=C[C@H]1C",
    "QUALITATIVE_LABEL": "middle level"
  },
  {
    "COMPOUND": "CC(C)(C)OC(=O)CC[C@]1(C(=O)NCc2ccccc2)N=C(c2ccc(OCCCO)cc2)O[C@H]1c1ccccc1",
    "QUALITATIVE_LABEL": "upper level"
  },
  {
    "COMPOUND": "CCN1C(=O)[C@H]2[C@H]3[C@H](O)[C@H](O)CC(=NO[C@@H]4O[C@H](CO)[C@@H](O)[C@H](O)[C@H]4O)[C@@H]3CC[C@H]2C1=O",
    "QUALITATIVE_LABEL": "lower level"
  },
  {
    "COMPOUND": "CC(=O)OC[C@H]1O[C@H](CC=NOC[C@@H](C)[C@H](OCc2ccccc2)C(C)C)C=C[C@@H]1OC(C)=O",
    "QUALITATIVE_LABEL": "lower level"
  },
  {
    "COMPOUND": "CC(CCN1CCc2nc(-c3ccccc3)c(-c3ccccc3)cc2C1)=NO[C@@H](C)c1cn([C@H](CO)Cc2ccccc2)nn1",
    "QUALITATIVE_LABEL": "lower level"
  },
  {
    "COMPOUND": "COC(=O)[C@@H]1CCCN1C(=O)[C@@H](C)CO",
    "QUALITATIVE_LABEL": "upper level"
  },
  {
    "COMPOUND": "CC(=O)O[C@H]1C2=C(C(=O)[C@@H]3O[C@@H]31)[C@H]1C(C)O[C@@H]2[C@@]23C(=O)[C@@H]4O[C@@H]4[C@@H](O)C2=CO[C@H](C)[C@@H]13 (some centres undefined)",
    "QUALITATIVE_LABEL": "middle level"
  },
  {
    "COMPOUND": "CC(C)C[C@@H]1NC(=O)[C@H]2C[C@@H](C(=O)NCCCCCCN(C)C)[C@@H](c3cccc(OCCO)c3)N2C1=O",
    "QUALITATIVE_LABEL": "upper level"
  },
  {
    "COMPOUND": "O=C1[C@H]2[C@H]3[C@H](O)[C@H](O)CC(=NOC[C@@H](O)COCc4ccco4)[C@@H]3CC[C@H]2C(=O)N1c1ccc(F)cc1F",
    "QUALITATIVE_LABEL": "lower level"
  },
  {
    "COMPOUND": "C#CCCCON=C1C[C@@H](O)[C@@H](O)[C@@H]2[C@@H]3C(=O)N([C@@H](C)c4ccccc4)C(=O)[C@@H]3CC[C@H]12",
    "QUALITATIVE_LABEL": "middle level"
  },
  {
    "COMPOUND": "O=C1C2=CC[C@H]3C(=O)N(Cc4ccc5c(c4)OCO5)C(=O)[C@H]3[C@H]2[C@H](O)[C@@H]2O[C@H]12",
    "QUALITATIVE_LABEL": "upper level"
  },
  {
    "COMPOUND": "CS(=O)(=O)CCOC(=O)C1=CC(CCCO)=CC(c2cccs2)N(Cc2cccc(OC(F)(F)F)c2)C=C1C(=O)OCCS(C)(=O)=O (centres undefined)",
    "QUALITATIVE_LABEL": "upper level"
  }
]

---

Tested on: Lefty1
Assay: Lefty1 binders on small-molecule microarrays, primary screen, biochemical, small-molecule microarray, 635/667 nm fluorescence (AID 1139)
Conditions: small-molecule microarray binding, fluorescence 635/667; higher = more signal
Parameter threshold = 0.5. Response is Yes when composite z-score meets or exceeds it, else No.

[
  {
    "COMPOUND": "C#CCCCON=C1C[C@@H](O)[C@@H](O)[C@@H]2[C@@H]3C(=O)N([C@@H](C)c4ccccc4)C(=O)[C@@H]3CC[C@H]12",
    "QUALITATIVE_LABEL": "Yes"
  },
  {
    "COMPOUND": "O=C1[C@H]2[C@H]3[C@H](O)[C@H](O)CC(=NOCc4ccccc4)[C@H]3CC[C@H]2C(=O)N1c1cccc(Oc2ccccc2)c1",
    "QUALITATIVE_LABEL": "Yes"
  },
  {
    "COMPOUND": "COc1cccc([C@H]2Oc3ccc(OC)cc3C(=NOC(C)CN3CCCc4nc(C)c(C)cc43)[C@@H]2O)c1 (some centres not stated)",
    "QUALITATIVE_LABEL": "Yes"
  },
  {
    "COMPOUND": "O=C1[C@H]2[C@H]3[C@H](O)[C@H](O)CC(=NO[C@@H]4O[C@H](CO)[C@@H](O)[C@H](O)[C@H]4O)[C@H]3CC[C@H]2C(=O)N1C1CCCCC1",
    "QUALITATIVE_LABEL": "Yes"
  },
  {
    "COMPOUND": "O=C1[C@H]2[C@H]3[C@H](O)[C@H](O)CC(=NOCc4ccccc4)[C@H]3CC[C@H]2C(=O)N1c1ccc(F)cc1F",
    "QUALITATIVE_LABEL": "No"
  },
  {
    "COMPOUND": "COc1ccc(COC(=O)NN=C2C[C@@H](O)[C@@H](O)[C@@H]3[C@@H]4C(=O)N(Cc5ccc6c(c5)OCO6)C(=O)[C@@H]4CC[C@@H]23)cc1",
    "QUALITATIVE_LABEL": "No"
  },
  {
    "COMPOUND": "COc1ccc([Si](C)(C)[C@H]2[C@H](CCO)O[C@@]3(C(=O)N(Cc4cccc(NC(=O)[C@H](C)O)c4)c4ccccc43)[C@@H]2C)cc1",
    "QUALITATIVE_LABEL": "Yes"
  }
]
